Attribute: OD450
# study.target: Peptide 5: Biotin-…-[Tyr(PC)]-acid
# Sequence (peptide, as listed by the source): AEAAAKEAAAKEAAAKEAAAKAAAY
# experiment.description: scFv ELISA
attribute.measured: OD450 (OD450)

[
  {
    "binder": "PcOxP_DB04_G05 (scFv, V domains shown, scFv in periplasmic extract) VH: EVQLLESGGGLVQPGGSLRLSCAASGFTFSDFYMEWVRQAPGKGLEWVAASRNKANDYTTEYADSVKGRFTISRDNSKNTLYLQMNSLRAEDTAVYYCARDFYGSSYWYFDVWGQGTLVTVSS VL: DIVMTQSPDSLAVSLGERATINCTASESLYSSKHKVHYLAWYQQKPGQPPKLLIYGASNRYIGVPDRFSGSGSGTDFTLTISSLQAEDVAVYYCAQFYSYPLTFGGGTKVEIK",
    "measurement.unit": "OD450",
    "result.value": 1.67
  },
  {
    "binder": "PcOxP_DB04_G09 (scFv, V domains shown, scFv in periplasmic extract) VH: EVQLLESGGGLVQPGGSLRLSCAASGNTFSDFYMEWVRQAPGKGLEWVAASRNKWNDYTTEYADSVKGRFTISRDNSKNTLYLQMNSLRAEDTAVYYCARDYYGSSYWYFDVWGQGTLVTVSS VL: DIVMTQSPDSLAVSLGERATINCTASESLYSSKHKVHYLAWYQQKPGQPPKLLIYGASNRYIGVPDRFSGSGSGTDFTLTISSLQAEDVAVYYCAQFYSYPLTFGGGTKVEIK",
    "measurement.unit": "OD450",
    "result.value": 1.08
  },
  {
    "binder": "PcOxP_DB01_B05 (scFv, V domains shown, scFv in periplasmic extract) VH: EVQLLESGGGLVQPGGSLRLSCAASGFTASDFYMEWVRQAPGKGLEWVAASRNKWNDYTTEYADSVKGRFTISRDNSKNTLYLQMNSLRAEDTAVYYCARDYYGSSYWYFDVWGQGTLVTVSS VL: DIQMTQSPSSLSASVGDRVTITCTASESLYSSKHKVHYLAWYQQKPGKAPKLLIYGASSLQIGVPSRFSGSGSGTDFTLTISSLQPEDFATYYCAQFYSYPLTFGGGTKVEIK",
    "measurement.unit": "OD450",
    "result.value": 0.74
  },
  {
    "binder": "PcOxP_DB02_E10 (scFv, V domains shown, scFv in periplasmic extract) VH: EVQLLESGGGLVQPGGSLRLSCAASGFTFSDQYMEWVRQAPGKGLEWVAASRNKANDYQTEYADSVKGRFTISRDNSKNTLYLQMNSLRAEDTAVYYCARDYYGSSYWYFDVWGQGTLVTVSS VL: DIQMTQSPSSLSASVGDRVTITCTASESLYSGKHKVHYLAWYQQKPGKAPKLLIYGASNLQIGVPSRFSGSGSGTDFTLTISSLQPEDFATYYCAQFYYYPLTFGGGTKVEIK",
    "measurement.unit": "OD450",
    "result.value": 0.79
  },
  {
    "binder": "PcOxP_DB04_E05 (scFv, V domains shown, scFv in periplasmic extract) VH: EVQLLESGGGLVQPGGSLRLSCAASGNTFSDFYMEWVRQAPGKGLEWVAASRNKANYYTTEYADSVKGRFTISRDNSKNTLYLQMNSLRAEDTAVYYCARDYYGSSYWYFDVWGQGTLVTVSS VL: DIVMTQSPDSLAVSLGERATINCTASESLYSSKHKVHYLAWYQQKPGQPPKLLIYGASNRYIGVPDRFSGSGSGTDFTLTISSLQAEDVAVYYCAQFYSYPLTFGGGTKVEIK",
    "measurement.unit": "OD450",
    "result.value": 1.03
  },
  {
    "binder": "PcOxP_DB03_G11 (scFv, V domains shown, scFv in periplasmic extract) VH: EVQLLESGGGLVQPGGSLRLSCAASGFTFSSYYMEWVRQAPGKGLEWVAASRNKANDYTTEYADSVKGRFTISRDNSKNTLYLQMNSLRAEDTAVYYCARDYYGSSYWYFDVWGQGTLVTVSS VL: DIVMTQSPDSLAVSLGERATINCKSSQSVLSSKHKKNYLAWYQQKPGQPPKLLIYGASNRYIGVPDRFSGSGSGTDFTLTISSLQAEDVAVYYCAQFYSYPLTFGGGTKVEIK",
    "measurement.unit": "OD450",
    "result.value": 0.72
  },
  {
    "binder": "PcOxP_DB03_E01 (scFv, V domains shown, scFv in periplasmic extract) VH: EVQLLESGGGLVQPGGSLRLSCAASGFTFSDYYMEWVRQAPGKGLEWVAASRNKANDYTVEYADSVKGRFTISRDNSKNTLYLQMNSLRAEDTAVYYCARDYYGSSYWYFDVWGQGTLVTVSS VL: DIQMTQSPSSLSASVGDRVTITCTASESLYSSKHKVHYLAWYQQKPGKAPKLLIYGTSNRYIGVPSRFSGSGSGTDFTLTISSLQPEDFATYYCAQFYEYPLTFGGGTKVEIK",
    "measurement.unit": "OD450",
    "result.value": 2.11
  },
  {
    "binder": "PcOxP_DB03_G07 (scFv, V domains shown, scFv in periplasmic extract) VH: EVQLLESGGGLVQPGGSLRLSCAASGFTFSDHYMEWVRQAPGKGLEWVAASRNKANDYTTEYADSVKGRFTISRDNSKNTLYLQMNSLRAEDTAVYYCARDYYGQSYWYFDVWGQGTLVTVSS VL: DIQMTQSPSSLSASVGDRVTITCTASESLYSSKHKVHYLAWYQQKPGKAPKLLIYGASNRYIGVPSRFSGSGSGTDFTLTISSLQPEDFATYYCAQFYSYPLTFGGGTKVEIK",
    "measurement.unit": "OD450",
    "result.value": 1.67
  },
  {
    "binder": "PcOxP_DB02_F02 (scFv, V domains shown, scFv in periplasmic extract) VH: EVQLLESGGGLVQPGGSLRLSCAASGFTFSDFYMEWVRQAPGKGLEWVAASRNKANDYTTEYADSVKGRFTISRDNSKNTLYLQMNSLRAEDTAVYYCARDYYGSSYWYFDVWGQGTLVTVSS VL: DIQMTQSPSSLSASVGDRVTITCFASESLYSSKHKVHYLAWYQQKPGKAPKLLIYGASNRGIGVPSRFSGSGSGTDFTLTISSLQPEDFATYYCAQFYSYPLTFGGGTKVEIK",
    "measurement.unit": "OD450",
    "result.value": 0.6
  },
  {
    "binder": "PcOxP_DB01_G04 (scFv, V domains shown, scFv in periplasmic extract) VH: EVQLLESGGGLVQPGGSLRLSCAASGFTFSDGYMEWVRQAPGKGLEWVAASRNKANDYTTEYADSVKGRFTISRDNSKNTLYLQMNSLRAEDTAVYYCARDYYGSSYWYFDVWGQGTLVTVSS VL: DIVMTQSPDSLAVSLGERATINCTASESLYSSKHKVHYLAWYQQKPGQPPKLLIYGASNRYSGVPDRFSGSGSGTDFTLTISSLQAEDVAVYYCAQFYSYPLTFGGGTKVEIK",
    "measurement.unit": "OD450",
    "result.value": 1.01
  }
]
